# key: entry, value: self-cleavage
B1: CPEB3 Ribozyme (parent)
chain: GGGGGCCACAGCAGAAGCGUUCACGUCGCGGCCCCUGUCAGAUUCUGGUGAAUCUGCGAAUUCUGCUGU

- Variants of: B1
- ASSAY COMMENT: self-cleavage, relative activity (ratio to wild type); higher = more cleavage; co-transcriptional
// return a plain number; no unit text

VARIANT STRING	PROPERTY MEASURED	NUMERIC RESULT
U20A U53G	self-cleavage	0.136
U43G U49A	self-cleavage	0.963

stdin: self-cleavage for `G48C` ?
stdout: 0.999

stdin: Which measured self-cleavage value corresponds to C24U G31U ?
stdout: 0.271

stdin: Return reported self-cleavage; argument: G4U U44G
stdout: 0.384

stdin: Any idea what its self-cleavage is? The variant is C29U A52U
stdout: 0.396

stdin: Any idea what self-cleavage was measured for G2U C66G ?
stdout: 0.0712

stdin: Look up self-cleavage for this variant: C34G C35G
stdout: 0.244

stdin: Value lookup for self-cleavage; key = G17C U26C
stdout: 0.145

stdin: For C22U C54A , what is its reported self-cleavage?
stdout: 0.19

stdin: Fill blank: measured self-cleavage of the variant U21G G58C is ____.
stdout: 0.519

stdin: # input variant: U49C U62C ; wanted: its self-cleavage
stdout: 0.827

stdin: What does the record list as self-cleavage for C12G A13U ?
stdout: 0.129

stdin: Param item = G47U U61G ; retrieve measured self-cleavage.
stdout: 0.906

stdin: Fill blank: measured self-cleavage of the variant A51C A59U is ____.
stdout: 0.742

stdin: Can you look up the measured self-cleavage of C12A C18U for me?
stdout: 0.143

stdin: Look at this variant and give its reported self-cleavage. U36C C45A
stdout: 0.865

stdin: State the recorded self-cleavage for this entry: U20C G47A
stdout: 0.243

stdin: Could you tell me which self-cleavage is on file for G19C C57A ?
stdout: 0.158

stdin: Which self-cleavage value is on record for A15U U26G ?
stdout: 0.424

stdin: Form field: reported self-cleavage of G11A U64G
stdout: 0.661

stdin: Which value of self-cleavage has been reported for G4A U67G in the records?
stdout: 0.918

stdin: Please give the measured self-cleavage for this variant: U46C C66A
stdout: 0.763

stdin: What value of measured self-cleavage is listed for G5U G31C ?
stdout: 0.0656
